tested on: RPMI-8226 leukemia; assay: NCI tumour cell line growth inhibition, 48 h; in the data active = GI50 below about 0.43 µM; inactive = the rest
Classes used: 1 (yes) for active, 0 (no) for inactive

{"STRUCTURE_STRING": "Cc1nnn(C)c1-c1cnc2c3ccc(C(C)(C)O)cc3n([C@H](c3ccccc3)C3CCOCC3)c2c1", "TESTED_TARGET": "RPMI-8226 leukemia", "DISCRETE_LABEL": "1 (yes)"}
{"STRUCTURE_STRING": "O=S(O)O.O=S(O)O.[Co].[NH2-].[NH2-].[NH2-].[NH2-]", "TESTED_TARGET": "RPMI-8226 leukemia", "DISCRETE_LABEL": "0 (no)"}
{"STRUCTURE_STRING": "COc1ccc(OC)c(N2CC(O)=C(c3nc4ccccc4s3)C2=N)c1", "TESTED_TARGET": "RPMI-8226 leukemia", "DISCRETE_LABEL": "0 (no)"}
{"STRUCTURE_STRING": "Oc1nc(N2CCOCC2)sc1/C=C1\\C=Nc2ccccc21", "TESTED_TARGET": "RPMI-8226 leukemia", "DISCRETE_LABEL": "0 (no)"}

----------
tested on: UO-31 renal; test: NCI tumour cell line growth inhibition, 48 h; in the data active means GI50 below about 0.43 µM; inactive means the rest
Classes used: active, inactive

{"MOLECULE": "CCN1/C(=C/C(C)=C/c2sc3ccc4ccccc4c3[n+]2CC)Sc2ccc3ccccc3c21", "DISCRETE_LABEL": "active"}
{"MOLECULE": "Cc1cc(-c2nc3sc(C)cn3c2/C=N/N=C(N)N)c(C)s1", "DISCRETE_LABEL": "inactive"}
{"MOLECULE": "COc1ccc(C(=O)/C=C/c2cc(-c3ccc(OC)c(OC)c3)n[nH]2)cc1OC", "DISCRETE_LABEL": "inactive"}
{"MOLECULE": "CC(=O)O[C@@H]1c2c(c3c(=O)c4cccc(O)c4c(=O)c=3c2=[N+]=[N-])[C@H](OC(C)=O)[C@@H](OC(C)=O)[C@]1(C)O", "DISCRETE_LABEL": "active"}
{"MOLECULE": "COc1cc(CSc2nc3ccc(Cl)cc3c(=O)n2Cc2ccccc2)cc(OC)c1OC", "DISCRETE_LABEL": "inactive"}
{"MOLECULE": "OCC1OC(N2C=C(c3nc4ccccc4s3)C3C=CC=CC32)C(O)C(O)C1O (stereo not drawn)", "DISCRETE_LABEL": "inactive"}
{"MOLECULE": "CC(C)CCN(CCC(C)C)CC(=O)Nc1ccc(S(=O)(=O)c2ccc(NC(=O)CN(CCC(C)C)CCC(C)C)cc2)cc1", "DISCRETE_LABEL": "inactive"}
{"MOLECULE": "CCCCCCCCCCCCCCCCn1cc[n+](C)c1", "DISCRETE_LABEL": "inactive"}

----------
system: SK-MEL-28 melanoma; experiment: NCI tumour cell line growth inhibition, 48 h

{"MOLECULE": "COc1ccc(Nc2ncc(I)c(NCCCNC(=O)C3CCC3)n2)cc1", "TGI": "> 100 µM"}
{"MOLECULE": "COc1cccc([C@@H]2C/C(=N\\NC(=O)C(=O)N[C@@H](C)c3ccccc3)c3ccccc3N2)c1", "TGI": "> 100 µM"}
{"MOLECULE": "COc1cc(C2c3cc4c(cc3OC(NNC(N)=S)C2C)OCO4)cc(OC)c1OC (centres undefined)", "TGI": "> 100 µM"}
{"MOLECULE": "CCCCCN(CCCCC)CCC[C@@H](C)[C@H]1CC[C@H]2[C@@H]3[C@H](OCCCN)C[C@@H]4C[C@H](OCCCN)CC[C@]4(C)[C@H]3C[C@H](OCCCN)[C@]12C", "TGI": "12.5 µM"}

----------
TGI: recorded values
tested on: HCC-2998 colon; experiment: NCI tumour cell line growth inhibition, 48 h

{"MOLECULE": "COc1cc2c(cc1OC)[C@@H]1C(=O)c3ccc4c(c3O[C@@H]1CO2)C[C@H](C(C)C)O4", "TGI": "> 61.6 µM"}
{"MOLECULE": "N#Cc1ccc(C2ON=C(c3ccccc3)N2C23CC4CC(CC(C4)C2)C3)cc1 (stereo unspecified)", "TGI": "> 10 µM"}
{"MOLECULE": "COc1cc(-n2cc(-c3ccc(Cl)cc3)n(-c3ccccc3)c2=O)cc(OC)c1OC", "TGI": "> 100 µM"}
{"MOLECULE": "CC(=O)NC1=NC(=O)/C(=C/c2ccccc2Cl)N1C", "TGI": "> 100 µM"}
{"MOLECULE": "COC(=O)C1(Cc2ccccc2)Cc2ccccc2C1O (stereo unspecified)", "TGI": "> 100 µM"}
{"MOLECULE": "CCC1C(NC(=O)OC)C(=O)N1[C@@H](C)c1ccccc1 (stereo partly specified)", "TGI": "> 100 µM"}

----------
tested on: NCI-H522 lung; assay: NCI tumour cell line growth inhibition, 48 h
TGI: recorded values

{"COMPOUND": "NC1CCN(c2nc3ccccc3c3c2CCCC3)CC1", "TGI": "19.3 µM"}
{"COMPOUND": "CN(C)c1ccc(N=C2N=C(Nc3ccccc3)C(=Nc3ccccc3)S2)cc1", "TGI": "> 100 µM"}
{"COMPOUND": "COc1ccc(C2c3ccc4ccccc4c3Oc3ncn(CCCn4ccnc4)c(=N)c32)cc1OC (stereo not given)", "TGI": "4.36 µM"}
{"COMPOUND": "O=C(C[C@@H]1CCCN2CCCC[C@H]12)N1c2ccccc2Sc2ccc(Cl)cc21", "TGI": "26.9 µM"}
{"COMPOUND": "O=S(O)O.O=S(O)O.[Co].[NH2-].[NH2-].[NH2-].[NH2-]", "TGI": "> 100 µM"}

----------
TGI: recorded values
test system: SK-MEL-2 melanoma; test: NCI tumour cell line growth inhibition, 48 h

{"COMPOUND": "CCCCCCCCCCC/C=C(/C(=O)CCCO[Si](C)(C)C(C)(C)C)C(=O)OC", "TGI": "> 100 µM"}
{"COMPOUND": "COc1cc2c3c(n(CCCN=[N+]=[N-])c(=O)c2cc1OC)-c1ccccc1C3=O", "TGI": "> 100 µM"}
{"COMPOUND": "O=S(Cc1ccccc1)c1ccccc1Cn1cccc1 (stereo not drawn)", "TGI": "> 100 µM"}

----------
tested on: SNB-19 CNS; assay: NCI tumour cell line growth inhibition, 48 h
Decision: TGI compared against 20 µM; not below it gives Met, below it gives Not met.

{"COMPOUND": "CN1CCN(C)C1c1ccc(C2N(C)CCN2C)cc1", "DISCRETE_LABEL": "Met"}
{"COMPOUND": "O=C(CCN1CCCCC1)Nc1ccc2c(c1)C(=O)c1ccc(NC(=O)CCN3CCCCC3)cc1C2=O", "DISCRETE_LABEL": "Not met"}
{"COMPOUND": "COc1ccc(C(=O)/C=C/c2cc(-c3ccc(OC)c(OC)c3)n[nH]2)cc1OC", "DISCRETE_LABEL": "Not met"}
{"COMPOUND": "CC(=O)NC(CCCCNCc1ccccc1)C(=O)NCc1ccccc1 (configuration not stated)", "DISCRETE_LABEL": "Met"}
{"COMPOUND": "Cc1n[nH]c(=O)n1C1CC1", "DISCRETE_LABEL": "Met"}
{"COMPOUND": "COc1cccc(/C=C2\\CCC(CN(C)C)C2=O)c1 (configuration not stated)", "DISCRETE_LABEL": "Met"}
{"COMPOUND": "CN(C)CC1(C)CC/C(=C\\c2ccc(Cl)cc2)C1=O (configuration not stated)", "DISCRETE_LABEL": "Met"}
{"COMPOUND": "O=S(=O)(c1ccccc1)C1CC(c2nc3ccccc3[nH]2)=NO1 (configuration not stated)", "DISCRETE_LABEL": "Met"}
{"COMPOUND": "COC(=O)/C=C1\\CCC2[C@@H](C(=O)CC3[C@]2(C)CCC[C@@]3(C)C(=O)OC)C1C (some centres not stated)", "DISCRETE_LABEL": "Met"}
{"COMPOUND": "CCOC(=O)c1c(NC(=S)Nc2ccccc2)sc2c1CCN(C)C2", "DISCRETE_LABEL": "Met"}
{"COMPOUND": "COC(=O)C(Cc1nc2ccc(Cl)cc2[nH]c1=O)C(=O)C(=O)Nc1cc(C)ccc1C (configuration not stated)", "DISCRETE_LABEL": "Met"}
{"COMPOUND": "O=C1Nc2cccc(Cl)c2/C1=C\\c1cccnc1", "DISCRETE_LABEL": "Not met"}

----------
tested on: MOLT-4 leukemia; assay: NCI tumour cell line growth inhibition, 48 h
TGI: recorded values

{"MOLECULE": "COc1cc2c(cc1OC)[C@@H]1C(=O)c3ccc4c(c3O[C@@H]1CO2)C[C@H](C(C)C)O4", "TGI": "> 69.2 µM"}
{"MOLECULE": "C/C(=C/CC[C@](C)(OC1OC(CO)C(O)C(O)C1O)[C@H]1CC[C@]2(C)[C@@H]1CC[C@@H]1[C@@]3(C)CC[C@H](O)C(C)(C)[C@@H]3C[C@H](O)[C@]12CO)CO (some centres undefined)", "TGI": "> 100 µM"}
{"MOLECULE": "CC1(C)/C(=N\\O)C2(OS(=O)(=O)C(F)(F)F)CCC1C2 (centres undefined)", "TGI": "> 100 µM"}
{"MOLECULE": "COC(=O)CCc1n(Cc2ccc3ccccc3c2)c2ccccc2[n+]1Cc1ccc2ccccc2c1", "TGI": "2.98 µM"}
